# Test system: COR-L23
# PROCEDURE_TEXT: relative viability (nuclei count vs DMSO), 5 days (fraction); higher = more cells survive
# ASSAY_SETUP: first compound 0.002 µM
REPORTED_PROPERTY: relative viability
// print number alone

Query :: Give me measured relative viability, please, for this molecule: CC(=O)O[C@@]12CO[C@@H]1C[C@H](O)[C@@]1(C)C(=O)[C@H](O)C3=C(C)[C@@H](OC(=O)[C@H](O)[C@@H](NC(=O)OC(C)(C)C)c4ccccc4)C[C@@](O)([C@@H](OC(=O)c4ccccc4)[C@H]21)C3(C)C [Docetaxel] + C[C@]1(O)C[C@@H](c2nc(-c3ccc4ccc(-c5ccccc5)nc4c3)c3c(N)nccn32)C1 [Linsitinib] (partner 1 µM)
Result :: 0.259
